- testSummary: protein stability index of a GFP-peptide fusion (GPS, HEK-293T) (PSI 1-6); higher = more stable;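 also: 24-mer peptide tiles fused after GFP, lentivirally expressed, FACS-sorted into six equal bins by GFP/DsRed ratio, decoded by Illumina sequencing, PSI is the read-weighted mean bin number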
- conditionInfo: treatment: DMSO; c terminus: a fixed tail appended
Parameter threshold = 4. Response is condition met when protein stability index meets or exceeds it, else condition not met.

Worked set:
biopolymerSequence	labelValue
LVENDQQLQKILSIPQSSLEPLKA [ACSBG2]	condition not met
KIYFTDSSSKWQRRDYLLLVMEGT [APMAP]	condition not met
HTHPSACQGQRLFEKLLQLTSQNI [PLD5]	condition not met
QALLRISLDKVQRSLGPRAPSLRR [SERTAD3]	condition not met

Hi, just wondering whether SSKSSGDLVDLFDGTSQSTGGSAD [CLINT1] shows protein stability index of 4 or higher.
condition met

Hi, just wondering whether EATKEVHTQAENAEFMRNFQKGQV [HMOX1] shows protein stability index of 4 or higher.
condition met

Hi, just wondering whether ILHLICLLEKVPCTLEQDHFKKQT [FEM1C] shows protein stability index of 4 or higher.
condition not met

Hi, just wondering whether DSFVCQCSEGFLINEDLKTCSRVD [MATN2] shows protein stability index of 4 or higher.
condition not met

Hi, just wondering whether TSSSLGDKSEYLEMEEGVKESLCA [KCNA4] shows protein stability index of 4 or higher.
condition met

Hi, just wondering whether PREHHGRGGMLSASAETLPAGFRV [PPFIA4] shows protein stability index of 4 or higher.
condition not met

Hi, just wondering whether SKDLYLISQMDSDQFIPIWTVANM [LARP4] shows protein stability index of 4 or higher.
condition not met

Hi, just wondering whether AEYPANGSGADRIYDLNIPAFVKF [NCK2] shows protein stability index of 4 or higher.
condition not met

Hi, just wondering whether MPPVSYDVQLLHSWNNNDRSLNVF [SPSB1] shows protein stability index of 4 or higher.
condition not met

Hi, just wondering whether RHPPKVGDDSDLSEGFESDSSHDS [SMG5] shows protein stability index of 4 or higher.
condition met

These measurements were taken from the supplement of paper PMC10567573.
